Cited source for all entries: PubChem BioAssay (NCI)

Test system: ACHN renal
Assay: NCI tumour cell line growth inhibition, 48 h; in the data active = GI50 below about 0.43 µM; inactive = the rest
# output must be one of YES (active), NO (inactive)

Observe how each entry below is paired with its result.
COC1=CC2CCN3Cc4cc5c(cc4C(C1O)C23)OCC5 (stereo not drawn) ... YES
CCc1ccc([O-])c(C=NCCCN(C)CCCN=Cc2cc(C)ccc2[O-])c1.[Co+3].[N-]=[N+]=[N-] ... NO
COc1c2ccccc2c(O)c2c(=O)ccn(C)c12 ... NO

Which result was noted for this compound in the test: O=C1/C(=C/c2ccccc2[N+](=O)[O-])COc2ccc(O)c(O)c21
YES

Which result was noted for this compound in the test: Cc1cc2c(cc1Cl)N1C(=O)NS(=O)(=O)N=C1NS2(=O)=O
NO

Which result was noted for this compound in the test: COc1ccc(/C=C2/CN(CCC#N)C/C(=C\c3ccc(OC)cc3)C2=O)cc1
NO

Which result was noted for this compound in the test: CCN(CCO)CCCOc1ccc2c(Nc3cc(CC(=O)Nc4cccc(F)c4)[nH]n3)ncnc2c1
NO

Which result was noted for this compound in the test: Cc1[nH]n(-c2cccc(Cl)c2)c(=O)c1/C=C1\C=c2ccccc2=CC1=O
NO
